# test-description: Cytotoxicity against african green monkey Vero 76 cells assessed as reduction in cell viability after 48 to 96 hrs by MTT assay
# Format: cell-based
# measurement-parameters: chlorocebus sabaeus
Note to self: CC50 under 50 µM means TRUE, ties and anything higher get FALSE.

stdin: Is 50 µM strictly greater than the compound's reported CC50? compound: "COc1nc2cc3cccnc3c(Cl)c2nc1-c1ccccc1"
stdout: FALSE

---

# test-description: Cytotoxicity against african green monkey Vero 76 cells assessed as reduction in cell viability after 48 to 96 hrs by MTT assay
# Format: cell-based
# measurement-parameters: chlorocebus sabaeus
quantity-measured: CC50

INSERT INTO measurements (structure_notation, quantity_measured, value_reported) VALUES
  ('COc1nc2cc3cccnc3c(Cl)c2nc1C(C)C', 'CC50', '> 100 µM');

Parameters: items (list). Returns: CC50 for each item.
1. CCCn1c(=O)c(-c2ccccc2)nc2cc3cccnc3c(Cl)c21
2. COc1nc2cc3cccnc3c(Cl)c2nc1-c1cccs1

stdout:
50 µM
> 100 µM

Parameters: items (list). Returns: CC50 for each item.
1. CCCn1c(-c2ccccc2)nc2cc3cccnc3cc21
2. O=c1c(-c2ccccc2)nc2cc3cccnc3c(Cl)c2n1C1CCCCC1
3. Cn1c(=O)c(-c2ccccc2)nc2c(Cl)c3ncccc3cc21

stdout:
90 µM
70 µM
> 100 µM

---

Record form. Attribute: pEC50. Fill in for each entry.
# System: Human poliovirus 1 strain Sabin
# test-description: Antiviral activity against Human poliovirus 1 strain Sabin 1 virus infected in african green monkey Vero-76 cells after 2 days by plaque reduction assay
# Type: functional, organism-based
# measurement-parameters: Enterovirus C, 1, Vero 76, 48 h
pEC50: −log10 of the molar value.

Answered cases to consult:
INSERT INTO measurements (structure_notation, value_reported) VALUES
  ('Cn1c(=O)c(-c2ccccc2)nc2c(Cl)c3ncccc3cc21', 4.42),
  ('CC(C)c1nc2c(Cl)c3ncccc3cc2n(C)c1=O', '< 4.00'),
  ('C#C[C@@]1(O)[C@H](O)[C@@H](CO)O[C@H]1n1ccc(N)nc1=O', 4.57),
  ('COc1nc2cc3cccnc3c(Cl)c2nc1-c1cccs1', '< 4.00'),
  ('O=c1c(-c2cccs2)nc2cc3cccnc3c(Cl)c2n1C1CCCCC1', '< 4.00');

Parameters: items (list). Returns: pEC50 for each item.
1. COc1nc2cc3cccnc3c(Cl)c2nc1-c1ccccc1
2. O=[N+]([O-])c1ccc(COc2nc3cc4cccnc4c(Cl)c3nc2-c2ccccc2)cc1
3. O=c1c(-c2ccccc2)nc2cc3cccnc3c(Cl)c2n1CC1CCCCC1
4. CCn1c(=O)c(-c2ccccc2)nc2c(Cl)c3ncccc3cc21
5. c1ccc(-c2nc3cc4cccnc4cc3n2C2CCCCC2)cc1
6. O=c1[nH]c2cc3cccnc3c(Cl)c2nc1-c1ccccc1
7. CCCn1c(-c2ccccc2)nc2cc3cccnc3cc21
8. O=c1c(-c2ccccc2)nc2cc3cccnc3c(Cl)c2n1C1CCCCC1

stdout:
4.14
< 4.00
< 4.70
< 4.22
< 4.46
< 4.00
< 4.05
< 4.15

Parameters: items (list). Returns: pEC50 for each item.
1. CCOc1nc2cc3cccnc3c(Cl)c2nc1-c1ccccc1
2. N#CCn1c(=O)c(-c2ccccc2)nc2c(Cl)c3ncccc3cc21
3. c1ccc(Cc2nc3cc4cccnc4cc3n2CC2CCCCC2)cc1
4. CC(C)c1nc2c(Cl)c3ncccc3cc2[nH]c1=O

stdout:
< 4.30
< 4.05
< 4.60
< 4.00

---

# test-description: Cytotoxicity against human MT4 cells assessed as reduction in cell proliferation after 96 hrs by MTT assay
# Assay type: cell-based
quantity-measured: CC50 at 96 h

INSERT INTO assay_data (structure_notation, quantity_measured, value_reported) VALUES
  ('COc1nc2cc3cccnc3c(Cl)c2nc1-c1ccccc1', 'CC50 at 96 h', '> 100 µM');

Parameters: items (list). Returns: CC50 at 96 h for each item.
1. CC(C)c1nc2c(Cl)c3ncccc3cc2n(C)c1=O
2. CC(C)c1nc2c(Cl)c3ncccc3cc2[nH]c1=O
3. c1ccc(-c2nc3cc4cccnc4cc3n2C2CCCCC2)cc1

stdout:
> 100 µM
> 100 µM
50 µM

Parameters: items (list). Returns: CC50 at 96 h for each item.
1. Cn1c(=O)c(-c2cccs2)nc2c(Cl)c3ncccc3cc21
2. Cn1c(=O)c(Cc2ccccc2)nc2c(Cl)c3ncccc3cc21
3. CCOc1nc2cc3cccnc3c(Cl)c2nc1-c1ccccc1
4. O=c1c(-c2ccccc2)nc2cc3cccnc3c(Cl)c2n1C1CCCCC1
5. O=c1[nH]c2cc3cccnc3c(Cl)c2nc1-c1ccccc1
6. c1ccc(Cc2nc3cc4cccnc4cc3n2CC2CCCCC2)cc1
7. Cn1c(=O)c(-c2ccccc2)nc2c(Cl)c3ncccc3cc21
8. N#CCn1c(=O)c(-c2ccccc2)nc2c(Cl)c3ncccc3cc21

stdout:
> 100 µM
> 100 µM
> 100 µM
48 µM
61 µM
10 µM
> 100 µM
> 100 µM

---

Record form. Attribute: CC50. Fill in for each entry.
# test-description: Cytotoxicity against african green monkey Vero 76 cells assessed as reduction in cell viability after 48 to 96 hrs by MTT assay
# Type: cell-based
# measurement-parameters: chlorocebus sabaeus
Numbers only, in µM.

INSERT INTO assay_data (structure_notation, output_unit, value_reported) VALUES
  ('O=c1c(-c2ccccc2)nc2c(Cl)c3ncccc3cc2n1Cc1ccccc1', 'µM', 90),
  ('O=c1c(Cc2ccccc2)nc2cc3cccnc3c(Cl)c2n1C1CCCCC1', 'µM', 20),
  ('c1ccc(Cc2nc3cc4cccnc4cc3n2CC2CCCCC2)cc1', 'µM', 25),
  ('CCOc1nc2cc3cccnc3c(Cl)c2nc1-c1ccccc1', 'µM', 50),
  ('C[C@@]1(O)[C@H](O)[C@@H](CO)O[C@H]1n1ccc(N)nc1=O', 'µM', 16);

Consider now this further molecule.
The reported value for "CCn1c(=O)c(-c2ccccc2)nc2c(Cl)c3ncccc3cc21" in terms of CC50 is 60

---

Record form. Attribute: CC50. Fill in for each entry.
# test-description: Cytotoxicity against african green monkey Vero 76 cells assessed as reduction in cell viability after 48 to 96 hrs by MTT assay
# Format: cell-based
# measurement-parameters: chlorocebus sabaeus

Answered cases to consult:
INSERT INTO measurements (structure_notation, quantity_measured, value_reported) VALUES
  ('O=[N+]([O-])c1ccc(COc2nc3cc4cccnc4c(Cl)c3nc2-c2ccccc2)cc1', 'CC50', '> 100 µM'),
  ('Cn1c(=O)c(Cc2ccccc2)nc2c(Cl)c3ncccc3cc21', 'CC50', '> 100 µM'),
  ('O=c1c(-c2cccs2)nc2cc3cccnc3c(Cl)c2n1C1CCCCC1', 'CC50', '> 100 µM');

Consider now this further compound.
The reported value for "O=c1[nH]c2cc3cccnc3c(Cl)c2nc1-c1cccs1" in terms of CC50 is > 100 µM
